measured_target: Muscarinic acetylcholine receptor M5 (Homo sapiens)
Sequence (P08912 whole entry): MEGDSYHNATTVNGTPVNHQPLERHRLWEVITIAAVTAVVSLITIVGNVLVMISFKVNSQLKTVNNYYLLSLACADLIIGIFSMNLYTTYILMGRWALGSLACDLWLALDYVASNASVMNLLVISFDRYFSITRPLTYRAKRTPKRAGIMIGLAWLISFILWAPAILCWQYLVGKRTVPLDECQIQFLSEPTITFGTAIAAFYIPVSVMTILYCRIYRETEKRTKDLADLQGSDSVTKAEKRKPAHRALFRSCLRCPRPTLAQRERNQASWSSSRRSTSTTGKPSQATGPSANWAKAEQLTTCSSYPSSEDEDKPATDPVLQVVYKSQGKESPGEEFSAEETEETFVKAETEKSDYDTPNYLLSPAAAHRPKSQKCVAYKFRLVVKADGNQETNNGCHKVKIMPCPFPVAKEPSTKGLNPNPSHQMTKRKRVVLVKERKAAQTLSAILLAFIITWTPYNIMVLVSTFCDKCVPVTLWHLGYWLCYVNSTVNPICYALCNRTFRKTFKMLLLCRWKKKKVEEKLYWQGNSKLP
Ki by entry:
Value expressed in µM; do not type the unit.

molecule: C#CCOC(=O)C1=CCCN(C)C1 [ARECAIDINE PROPARGYL ESTER]
readout_units: µM
Ki: 0.933

Shifting focus to the molecule that follows.
Determine from records and report Ki for C[N+](C)(C)CC#CCOC(=O)Nc1ccc(Cl)cc1
3.8

* * *

measured_target: Muscarinic acetylcholine receptor M2 (Homo sapiens) (UniProt P08172)
Sequence (whole entry): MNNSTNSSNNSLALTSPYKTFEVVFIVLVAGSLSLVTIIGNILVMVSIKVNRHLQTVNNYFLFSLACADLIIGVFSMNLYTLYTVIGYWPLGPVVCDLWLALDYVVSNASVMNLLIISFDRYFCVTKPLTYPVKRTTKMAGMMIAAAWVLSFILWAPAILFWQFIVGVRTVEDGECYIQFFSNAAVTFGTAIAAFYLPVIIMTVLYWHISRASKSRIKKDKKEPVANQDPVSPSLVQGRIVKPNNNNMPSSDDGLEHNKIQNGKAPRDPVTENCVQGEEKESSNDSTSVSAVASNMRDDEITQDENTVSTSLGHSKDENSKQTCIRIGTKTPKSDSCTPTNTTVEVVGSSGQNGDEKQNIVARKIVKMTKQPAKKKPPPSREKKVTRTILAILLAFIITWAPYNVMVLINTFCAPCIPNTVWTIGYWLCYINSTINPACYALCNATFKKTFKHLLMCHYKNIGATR
assay_method_text: Agonist potency at muscarinic M2 receptor in guinea pig atrium
Type: functional, tissue-based
measurement_setup: Cavia porcellus; Cardiac atrium; target entry is the homologue from another species
pD2 by entry:
// keep it numeric: no unit symbol after the value

compound: C#CCOC(=O)C1=CCCN(C)C1
measured_target: Muscarinic acetylcholine receptor M2 (Homo sapiens) (UniProt P08172)
value_reported: 8.67
--
compound: C[C@@H]1O[C@H]([C@H]2CCC[N+]2(C)C)C[S@@+]1[O-]
measured_target: Muscarinic acetylcholine receptor M2 (Homo sapiens) (UniProt P08172)
value_reported: 6.11
--
compound: C[C@@H]1O[C@H]([C@@H]2CCC[N+]2(C)C)C[S@+]1[O-]
measured_target: Muscarinic acetylcholine receptor M2 (Homo sapiens) (UniProt P08172)
value_reported: 7.65
--
compound: C[C@H]1O[C@@H](C[N+](C)(C)C)C[S+]1[O-] (single isomer, unassigned; (-))
measured_target: Muscarinic acetylcholine receptor M2 (Homo sapiens) (UniProt P08172)
value_reported: 6.66

Shifting focus to the compound that follows.
Determine from records and report pD2 for C[C@@H]1O[C@H]([C@@H]2CCC[N+]2(C)C)C[S@@+]1[O-]
6.37

* * *

measured_target: Muscarinic acetylcholine receptor M2 (Homo sapiens)
assay_method_text: Agonist potency at muscarinic M2 receptor in guinea pig atrium
Assay type: functional, tissue-based
measurement_setup: Cavia porcellus; Cardiac atrium; target entry is the homologue from another species
measured_property: -logKa

Some compounds with recorded -logKa:
compound: C[C@@H]1O[C@H]([C@@H]2CCC[N+]2(C)C)C[S@@+]1[O-]
measured_property: -logKa
value_reported: 4.64
//
compound: C[C@@H]1O[C@H]([C@H]2CCC[N+]2(C)C)C[S@@+]1[O-]
measured_property: -logKa
value_reported: 5.11
//
compound: C[C@H]1O[C@@H](C[N+](C)(C)C)C[S+]1[O-] (single isomer, unassigned; (-))
measured_property: -logKa
value_reported: 5.22

Shifting focus to the compound that follows.
Determine from records and report -logKa for C[C@@H]1O[C@H]([C@@H]2CCC[N+]2(C)C)C[S@+]1[O-]
6.13

* * *

Ratio by entry:
measured_target: UniProtKB P08172
Sequence (whole entry): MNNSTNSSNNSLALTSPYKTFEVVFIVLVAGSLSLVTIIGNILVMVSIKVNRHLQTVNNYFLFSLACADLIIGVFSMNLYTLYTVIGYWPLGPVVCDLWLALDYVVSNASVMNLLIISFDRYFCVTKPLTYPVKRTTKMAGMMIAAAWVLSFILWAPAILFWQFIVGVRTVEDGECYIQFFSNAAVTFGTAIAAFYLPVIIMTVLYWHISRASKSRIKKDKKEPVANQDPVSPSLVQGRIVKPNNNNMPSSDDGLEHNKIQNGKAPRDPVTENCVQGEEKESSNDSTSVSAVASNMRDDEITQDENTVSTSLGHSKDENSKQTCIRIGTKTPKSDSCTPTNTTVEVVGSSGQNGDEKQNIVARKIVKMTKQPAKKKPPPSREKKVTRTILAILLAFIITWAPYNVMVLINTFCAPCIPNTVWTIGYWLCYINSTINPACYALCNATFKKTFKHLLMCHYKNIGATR
assay_method_text: Efficacy of agonist at muscarinic M2 receptor in guinea pig atrium as ratio of Ka/ED50
Format: functional, tissue-based
measurement_setup: Cavia porcellus; Cardiac atrium; target entry is the homologue from another species
// keep it numeric: no unit symbol after the value

Some compounds with recorded Ratio:
compound: C[C@@H]1O[C@H]([C@H]2CCC[N+]2(C)C)C[S@@+]1[O-]
value_reported: 12
//
compound: C[C@H]1O[C@@H](C[N+](C)(C)C)C[S+]1[O-] (single isomer, unassigned; (-))
value_reported: 28
//
compound: C[C@@H]1O[C@H]([C@@H]2CCC[N+]2(C)C)C[S@+]1[O-]
value_reported: 84

Shifting focus to the compound that follows.
Determine from records and report Ratio for C[C@@H]1O[C@H]([C@@H]2CCC[N+]2(C)C)C[S@@+]1[O-]
58

* * *

Ki by entry:
measured_target: UniProtKB P08173
Sequence (P08173 whole entry): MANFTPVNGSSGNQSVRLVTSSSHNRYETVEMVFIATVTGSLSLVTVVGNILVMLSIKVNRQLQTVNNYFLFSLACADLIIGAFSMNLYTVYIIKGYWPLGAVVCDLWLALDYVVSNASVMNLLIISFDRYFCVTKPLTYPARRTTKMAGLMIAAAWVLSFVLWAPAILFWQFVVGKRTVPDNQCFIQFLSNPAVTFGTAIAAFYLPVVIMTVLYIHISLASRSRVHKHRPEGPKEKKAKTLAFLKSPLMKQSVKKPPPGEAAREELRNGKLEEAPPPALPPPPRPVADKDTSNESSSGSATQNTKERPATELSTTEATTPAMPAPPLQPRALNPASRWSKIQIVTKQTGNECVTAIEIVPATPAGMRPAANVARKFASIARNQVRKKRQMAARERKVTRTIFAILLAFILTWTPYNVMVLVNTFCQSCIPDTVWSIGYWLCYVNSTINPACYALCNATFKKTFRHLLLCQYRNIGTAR

Some compounds with recorded Ki:
compound: C[C@@H]1O[C@H]([C@@H]2CCC[N+]2(C)C)C[S@+]1[O-]
value_reported: > 100 µM

compound: C#CCOC(=O)C1=CCCN(C)C1 [ARECAIDINE PROPARGYL ESTER]
value_reported: 0.977 µM

compound: C[C@H]1O[C@@H]([C@@H]2CCC[N+]2(C)C)C[S@@+]1[O-] (stereo in doubt; (-)-6)
value_reported: > 100 µM

compound: C[C@H]1O[C@@H]([C@@H]2CCCN2C)C[S@+]1[O-]
value_reported: > 100 µM

compound: C[N+](C)(C)CC#CCOC(=O)Nc1ccc(Cl)cc1
value_reported: 9.12 µM

Determine from records and report Ki for C[C@@H]1O[C@H]([C@H]2CCC[N+]2(C)C)C[S@+]1[O-]
> 100 µM

Determine from records and report Ki for C[C@@H]1O[C@H]([C@@H]2CCCN2C)C[S@+]1[O-]
> 100 µM

Determine from records and report Ki for C[C@H]1O[C@@H]([C@H]2CCCN2C)C[S@@+]1[O-]
> 100 µM

* * *

measured_target: Muscarinic acetylcholine receptor M5 (Homo sapiens, UniProt P08912)
Sequence (P08912 whole entry): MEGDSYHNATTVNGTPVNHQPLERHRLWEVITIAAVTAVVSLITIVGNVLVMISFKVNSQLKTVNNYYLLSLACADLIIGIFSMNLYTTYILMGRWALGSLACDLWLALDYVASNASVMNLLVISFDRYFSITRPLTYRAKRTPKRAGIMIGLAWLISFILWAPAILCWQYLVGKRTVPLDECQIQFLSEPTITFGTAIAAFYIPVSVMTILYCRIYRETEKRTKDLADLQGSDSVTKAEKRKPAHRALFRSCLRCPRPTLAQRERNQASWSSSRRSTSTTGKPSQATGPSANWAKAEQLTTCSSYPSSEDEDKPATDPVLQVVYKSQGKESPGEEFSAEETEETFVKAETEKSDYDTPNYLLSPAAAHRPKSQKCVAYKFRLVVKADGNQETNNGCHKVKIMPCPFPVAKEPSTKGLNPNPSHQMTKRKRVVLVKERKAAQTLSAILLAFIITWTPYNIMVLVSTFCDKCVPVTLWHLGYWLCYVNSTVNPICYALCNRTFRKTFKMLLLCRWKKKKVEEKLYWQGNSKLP
measured_property: Ki

Some compounds with recorded Ki:
compound: C[C@@H]1O[C@H]([C@@H]2CCCN2C)C[S@+]1[O-]
measured_target: Muscarinic acetylcholine receptor M5 (Homo sapiens, UniProt P08912)
Ki: > 100 µM
--
compound: C[C@H]1O[C@@H]([C@@H]2CCC[N+]2(C)C)C[S@@+]1[O-].[I-] (stereo in doubt; (-)-8)
measured_target: Muscarinic acetylcholine receptor M5 (Homo sapiens, UniProt P08912)
Ki: > 100 µM

Shifting focus to the compound that follows.
Determine from records and report Ki for C[C@H]1O[C@@H]([C@@H]2CCCN2C)C[S@+]1[O-]
> 100 µM
